# TESTED TARGET: UniProt Q8NHM5
# Sequence (Q8NHM5 whole entry): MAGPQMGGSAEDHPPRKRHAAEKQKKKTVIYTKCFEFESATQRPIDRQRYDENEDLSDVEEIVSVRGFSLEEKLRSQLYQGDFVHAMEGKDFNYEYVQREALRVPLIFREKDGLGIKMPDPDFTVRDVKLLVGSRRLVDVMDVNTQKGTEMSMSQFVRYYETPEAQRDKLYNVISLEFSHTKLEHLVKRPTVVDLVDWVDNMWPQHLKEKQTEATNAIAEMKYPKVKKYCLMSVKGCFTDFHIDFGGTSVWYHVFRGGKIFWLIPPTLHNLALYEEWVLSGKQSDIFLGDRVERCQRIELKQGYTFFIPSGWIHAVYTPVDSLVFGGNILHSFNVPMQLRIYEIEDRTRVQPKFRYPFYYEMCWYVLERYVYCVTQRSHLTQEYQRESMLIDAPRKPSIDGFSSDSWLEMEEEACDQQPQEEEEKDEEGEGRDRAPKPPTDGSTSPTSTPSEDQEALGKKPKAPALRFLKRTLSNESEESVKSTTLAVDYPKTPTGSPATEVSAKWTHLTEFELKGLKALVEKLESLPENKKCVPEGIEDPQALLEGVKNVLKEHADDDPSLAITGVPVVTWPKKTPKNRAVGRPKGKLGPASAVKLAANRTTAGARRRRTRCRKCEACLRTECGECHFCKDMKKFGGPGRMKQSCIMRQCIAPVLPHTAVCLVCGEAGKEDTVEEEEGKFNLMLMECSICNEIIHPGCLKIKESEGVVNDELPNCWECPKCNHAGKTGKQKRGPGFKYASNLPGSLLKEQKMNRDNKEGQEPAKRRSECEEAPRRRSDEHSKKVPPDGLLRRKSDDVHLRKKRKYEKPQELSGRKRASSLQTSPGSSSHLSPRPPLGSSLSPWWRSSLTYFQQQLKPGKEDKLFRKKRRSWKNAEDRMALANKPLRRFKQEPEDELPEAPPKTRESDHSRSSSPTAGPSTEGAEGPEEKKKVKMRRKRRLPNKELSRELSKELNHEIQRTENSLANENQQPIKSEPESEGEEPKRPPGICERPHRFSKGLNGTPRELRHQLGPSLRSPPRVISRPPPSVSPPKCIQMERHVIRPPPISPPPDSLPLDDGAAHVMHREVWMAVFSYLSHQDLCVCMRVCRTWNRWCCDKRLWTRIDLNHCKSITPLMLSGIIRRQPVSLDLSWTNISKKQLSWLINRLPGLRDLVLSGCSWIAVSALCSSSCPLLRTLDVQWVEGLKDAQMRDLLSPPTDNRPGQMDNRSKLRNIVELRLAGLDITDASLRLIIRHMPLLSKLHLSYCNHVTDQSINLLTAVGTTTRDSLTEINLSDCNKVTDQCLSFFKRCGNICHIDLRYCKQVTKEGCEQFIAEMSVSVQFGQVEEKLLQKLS
# TEST PROTOCOL: KDM2B TR-FRET assay for determining inhibitor IC50
# Format: biochemical
# CONDITION DETAILS: TR-FRET (HTRF), biotin-H3K36me2 peptide substrate, 2-OG 0.3 μM or 6 μM
VALUE TYPE: log10 of IC50 (log10 of the value in nM)

INSERT INTO measurements (compound, tested_target, value_type, recorded_result) VALUES
  ('COc1ccc2cc(C(=O)C3CCCN(C(C)C)C3)ccc2c1 (stereo not drawn)', 'UniProt Q8NHM5', 'log10 of IC50', 3.81),
  ('COc1ccc2cc(C(=O)[C@@H]3CN(C4CCC4)CC[C@@H]3C)ccc2c1CC#N (stereo in doubt) [Example 182b]', 'UniProt Q8NHM5', 'log10 of IC50', 0.05),
  ('Cc1c(C#N)ccc2cc(C(=O)C3CCCN(C4CCCC4)C3)ccc12 (stereo not drawn)', 'UniProt Q8NHM5', 'log10 of IC50', 2.51),
  ('CS(=O)(=O)c1ccc2cc(C(=O)C3CCCN(CC4CC4)C3)ccc2c1 (stereo not drawn)', 'UniProt Q8NHM5', 'log10 of IC50', 2.05),
  ('CN(C)C(=O)c1ccc2cc(C(=O)C3CCCN(C4CCC4)C3)ccc2c1 (stereo not drawn)', 'UniProt Q8NHM5', 'log10 of IC50', 2.05),
  ('CC(O)c1cc(C(=O)C2CCCN(C3CCC3)C2)cc2ccccc12 (stereo not drawn)', 'UniProt Q8NHM5', 'log10 of IC50', 1.64),
  ('C[C@@H]1CCN(C2CCC2)C[C@H]1C(=O)c1ccc2cc(C#N)ccc2c1 (stereo in doubt) [Example 161b]', 'UniProt Q8NHM5', 'log10 of IC50', 1.09),
  ('COc1ccc2cc(C(=O)[C@@H]3CN(C4CCC4)CC[C@@H]3CC(C)C)ccc2c1CC#N (stereo in doubt) [Example 185a]', 'UniProt Q8NHM5', 'log10 of IC50', 1.73),
  ('O=C(c1ccc(C(F)(F)F)cc1)C1CCCN(CC2CC2)C1 (stereo not drawn)', 'UniProt Q8NHM5', 'log10 of IC50', 3.15),
  ('CCC1CCN(C2CC2)CC1C(=O)c1ccc2cc(OC)ccc2c1 (single isomer, unassigned) [Example 147b]', 'UniProt Q8NHM5', 'log10 of IC50', 0.69),
  ('CCCN1CCCC(C(=O)c2ccc3c(CC#N)c(OC)ccc3c2)C1 (stereo not drawn)', 'UniProt Q8NHM5', 'log10 of IC50', 2.43),
  ('CCCN1CC[C@H](C)[C@H](C(=O)c2ccc3c(CC#N)c(OC)ccc3c2)C1 (stereo in doubt) [Example 181b]', 'UniProt Q8NHM5', 'log10 of IC50', 1.09),
  ('COc1ccc2cc(C(=O)C3CCCN(CCF)C3)ccc2c1 (stereo not drawn)', 'UniProt Q8NHM5', 'log10 of IC50', 3.26),
  ('O=C(c1ccc2ccccc2n1)C1CCCN(CC2CC2)C1 (single isomer, unassigned) [Example 117a]', 'UniProt Q8NHM5', 'log10 of IC50', 2.55),
  ('COc1ccc2cc(C(=O)[C@@H]3CCCN(CC4CC4)C3)ccc2c1', 'UniProt Q8NHM5', 'log10 of IC50', 2.09),
  ('CCCN1CCCC(C(=O)c2ccc3c(cnn3C)c2)C1 (stereo not drawn)', 'UniProt Q8NHM5', 'log10 of IC50', 2.09),
  ('COc1ccc2cc(C(=O)C3CCCN(C4CCOCC4)C3)ccc2c1 (stereo not drawn)', 'UniProt Q8NHM5', 'log10 of IC50', 3.41),
  ('O=C(c1ccc2cnccc2c1)C1CCCN(C2CCC2)C1 (stereo not drawn)', 'UniProt Q8NHM5', 'log10 of IC50', 2.35),
  ('COc1ccc2cc(C(=O)C3CN(C4CCC4)CCC3c3ccccc3)ccc2c1 (single isomer, unassigned) [Example 141b]', 'UniProt Q8NHM5', 'log10 of IC50', 1.99),
  ('CCN1CCCC(C(=O)c2ccc3cc(OC)ccc3c2)C1 (stereo not drawn)', 'UniProt Q8NHM5', 'log10 of IC50', 3.06),
  ('O=C(c1cc(CO)c2ccccc2c1)C1CCCN(CC2CC2)C1 (stereo not drawn)', 'UniProt Q8NHM5', 'log10 of IC50', 2.23),
  ('COc1ccc2cc(C(=O)C3CCCN(CC4CC4)C3)ccc2n1 (stereo not drawn)', 'UniProt Q8NHM5', 'log10 of IC50', 2.31),
  ('COc1ccc2cc(C(=O)[C@H]3CCCN(C4CCCC4)C3)ccc2c1', 'UniProt Q8NHM5', 'log10 of IC50', 1.75),
  ('Cc1c(C#N)ccc2cc(C(=O)C3CCCN(C4CCC4)C3)ccc12 (stereo not drawn)', 'UniProt Q8NHM5', 'log10 of IC50', 1.94),
  ('CC(=O)NCc1cc(C(=O)C2CCCN(CC3CC3)C2)cc2ccccc12 (stereo not drawn)', 'UniProt Q8NHM5', 'log10 of IC50', 2.66),
  ('Cc1cccc2ccc(C(=O)C3CCCN(C4CCC4)C3)cc12 (stereo not drawn)', 'UniProt Q8NHM5', 'log10 of IC50', 2.01),
  ('CC1CCN(C2CCCC2)CC1C(=O)c1ccc2cc(C#N)ccc2c1 (stereo not drawn) [Example 162a]', 'UniProt Q8NHM5', 'log10 of IC50', 2.91),
  ('CCCN1CCCC(C(=O)c2cccc(N(C)C)c2)C1 (stereo not drawn)', 'UniProt Q8NHM5', 'log10 of IC50', 3.20),
  ('O=C(c1cccc2ccccc12)C1CCCN(CC2CC2)C1 (stereo not drawn)', 'UniProt Q8NHM5', 'log10 of IC50', 3.58),
  ('CC[C@@H]1CCN(C2CCC2)C[C@H]1C(=O)c1ccc2c(CC#N)c(OC)ccc2c1 (stereo in doubt) [Example 183a]', 'UniProt Q8NHM5', 'log10 of IC50', 1.74),
  ('Cc1ccc2cc(C(=O)C3CCCN(C4CCCC4)C3)ccc2c1 (stereo not drawn)', 'UniProt Q8NHM5', 'log10 of IC50', 2.38),
  ('N#Cc1ccc2cc(C(=O)C3CCCN(CC4CC4)C3)ccc2c1 (stereo not drawn)', 'UniProt Q8NHM5', 'log10 of IC50', 1.84),
  ('COc1ccc2cc(C(=O)[C@H]3CCCN(CC4CC4)C3)ccc2c1', 'UniProt Q8NHM5', 'log10 of IC50', 3.43);
